Task for the reader: assign each of the following compounds its reported intracellular p24-positive live cells (flow cytometry quadrant).
Test system: HIV-1 latently infected ACH-2 cells
Experimental Details: Intracellular HIV-1 p24 by flow cytometry in ACH-2 cells
Format: cell-based
Experimental Parameters: 0.1 µM, 24 h
Description: The reactivation of HIV-1 from latently infected cells was determined by intracellular p24 protein expression and quantification of p24 antigen in the supernatant (ACH-2 and U1 cells), or by changes in intracellular green fluorescent protein (GFP) expression (J-Lat 10.6 cells). […] The increase in supernatant p24 antigen levels was measured using a Lumipulse G1200 (FUJIREBIO, Tokyo, Japan). […] Intracellular p24 protein expression and GFP-positive cells were analyzed by flow cytometry. […]
Please respond with just the number, no unit label.

Q. Item CCCC(CCC)C(=O)OCC1(CO)CC(=C(C)C)C(=O)O1 (stereo not shown) has what recorded intracellular p24-positive live cells (flow cytometry quadrant)?
A. 0.889

Q. Check CC(=O)O[C@@]12C[C@@H](C)[C@@]3(O)[C@@H](C=C(CO)C[C@]4(O)C(=O)C(C)=C[C@@H]34)[C@@H]1C2(C)C [Prostratin, reference compound] too.
A. 4.99

Q. Check CCCCCCCCCC(=O)OCC1(CO)C/C(=C\CC(C(C)C)C(C)C)C(=O)O1 (stereo not shown) [YOK058E] too.
A. 0.629

Q. Check CCCCCCCCCC(=O)OCC1(CO)CC(=C(C)C)C(=O)O1 (stereo not shown) too.
A. 0.714

Data provenance: paper PMC8010149
